Biological target: Atypical chemokine receptor 3 (Homo sapiens, UniProt P25106, S198R)
Sequence (P25106 whole entry S198R): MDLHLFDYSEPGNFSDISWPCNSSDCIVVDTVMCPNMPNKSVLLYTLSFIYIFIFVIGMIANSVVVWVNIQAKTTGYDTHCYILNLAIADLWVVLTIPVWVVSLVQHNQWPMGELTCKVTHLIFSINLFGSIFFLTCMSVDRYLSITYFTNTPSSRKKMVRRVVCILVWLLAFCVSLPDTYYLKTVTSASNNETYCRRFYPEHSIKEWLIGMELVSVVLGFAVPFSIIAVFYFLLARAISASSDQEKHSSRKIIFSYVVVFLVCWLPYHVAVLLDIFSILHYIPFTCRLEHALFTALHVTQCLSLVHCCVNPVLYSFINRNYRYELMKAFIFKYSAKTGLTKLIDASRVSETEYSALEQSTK
Test: Activation of YFP-tagged ACKR3 S198R mutant (unknown origin) expressed in HEK293E cells assessed as induction of Rluc-tagged beta-arrestin-2 recruitment after 30 mins by BRET assay
Type: cell-based
Details: read-out: EC50
readout label: EC50 (nM)
Number only, in nM; omit the unit.

Item: CN1C(=O)[C@H](CCCNC(=N)N)NC(=O)[C@@H](Cc2ccc(O)cc2)NC(=O)[C@@H]2CCCN2C(=O)[C@H](Cc2ccc3ccccc3c2)NC(=O)[C@@H]1CCCNC(=N)N | System: Atypical chemokine receptor 3 (Homo sapiens, UniProt P25106, S198R) | EC50: 270

Hey, Atypical chemokine receptor 3 (Homo sapiens, UniProt P25106, S198R) data for CN1C(=O)[C@H](CCCNC(=N)N)NC(=O)[C@@H](Cc2ccc(O)cc2)NC(=O)[C@H](Cc2cccc3ccccc23)N(C)C(=O)[C@H](Cc2ccc3ccccc3c2)NC(=O)[C@@H]1CCCNC(N)=O : EC50 came out at 1900

----------
Target: Atypical chemokine receptor 3 (Homo sapiens)
Experiment: Displacement of [125I]SDF-1alpha from ACKR3 (unknown origin) expressed in CHO cells after 1 hr by scintillation counting method
Lab note: anything with IC50 below 1000 nM is marked satisfied; values at 1000 nM or higher are marked not satisfied.

Prompt: Take the compound CN1C(=O)[C@H](CCCNC(=N)N)NC(=O)[C@@H](Cc2c[nH]c3ccccc23)NC(=O)[C@@H]2CCCN2C(=O)[C@H](Cc2ccc3ccccc3c2)NC(=O)[C@@H]1CCCNC(N)=O and say whether its IC50 is less than 1000 nM.
Response: not satisfied

Prompt: Just wondering, is IC50 of CN1C(=O)[C@H](CCCNC(=N)N)NC(=O)[C@@H](Cc2ccc(O)cc2)NC(=O)[C@@H]2CCCN2C(=O)[C@H](Cc2ccc3ccccc3c2)NC(=O)[C@@H]1CCCN below 1000 nM?
Response: not satisfied

Prompt: Problem: For the compound CN1C(=O)[C@H](CCCNC(=N)N)NC(=O)[C@@H](Cc2ccc(O)cc2)NC(=O)[C@@H]2CCCN2C(=O)[C@H](Cc2ccc3ccccc3c2)NC(=O)[C@@H]1CCCNC(=N)N , is IC50 under 1000 nM?
Response: satisfied

Prompt: Would you kindly verify if IC50 of CN1C(=O)[C@H](CCCNC(=N)N)NC(=O)[C@@H](Cc2ccccc2F)NC(=O)[C@@H]2CCCN2C(=O)[C@H](Cc2ccc3ccccc3c2)NC(=O)[C@@H]1CCCNC(N)=O is strictly less than 1000 nM?
Response: satisfied

Prompt: is_below(IC50, 1000 nM) for CN1C(=O)[C@H](Cc2ccc3ccccc3c2)NC(=O)[C@H](CCCNC(N)=O)N(C)C(=O)[C@H](CCCNC(=N)N)NC(=O)[C@@H](Cc2ccc(O)cc2)NC(=O)[C@H]1CS ?
Response: not satisfied

Prompt: For this compound, is IC50 lower than 1000 nM? CC[C@H](C)[C@H]1C(=O)N[C@H](Cc2ccc(O)cc2)C(=O)N[C@@H](CCCNC(=N)N)C(=O)N(C)[C@@H](CCCNC(N)=O)C(=O)N[C@@H](Cc2ccc3ccccc3c2)C(=O)N1C
Response: not satisfied

Prompt: Consider the compound CN1C(=O)[C@H](CCC(N)=O)NC(=O)[C@@H](Cc2ccc(O)cc2)NC(=O)[C@@H]2CCCN2C(=O)[C@H](Cc2ccc3ccccc3c2)NC(=O)[C@@H]1CCCNC(=N)N . Is its IC50 strictly less than 1000 nM?
Response: not satisfied
